// molecules with reported pIC50 on Metabotropic glutamate receptor 1 (Homo sapiens, UniProt Q13255), multi-publication
Sequence (Q13255 whole entry): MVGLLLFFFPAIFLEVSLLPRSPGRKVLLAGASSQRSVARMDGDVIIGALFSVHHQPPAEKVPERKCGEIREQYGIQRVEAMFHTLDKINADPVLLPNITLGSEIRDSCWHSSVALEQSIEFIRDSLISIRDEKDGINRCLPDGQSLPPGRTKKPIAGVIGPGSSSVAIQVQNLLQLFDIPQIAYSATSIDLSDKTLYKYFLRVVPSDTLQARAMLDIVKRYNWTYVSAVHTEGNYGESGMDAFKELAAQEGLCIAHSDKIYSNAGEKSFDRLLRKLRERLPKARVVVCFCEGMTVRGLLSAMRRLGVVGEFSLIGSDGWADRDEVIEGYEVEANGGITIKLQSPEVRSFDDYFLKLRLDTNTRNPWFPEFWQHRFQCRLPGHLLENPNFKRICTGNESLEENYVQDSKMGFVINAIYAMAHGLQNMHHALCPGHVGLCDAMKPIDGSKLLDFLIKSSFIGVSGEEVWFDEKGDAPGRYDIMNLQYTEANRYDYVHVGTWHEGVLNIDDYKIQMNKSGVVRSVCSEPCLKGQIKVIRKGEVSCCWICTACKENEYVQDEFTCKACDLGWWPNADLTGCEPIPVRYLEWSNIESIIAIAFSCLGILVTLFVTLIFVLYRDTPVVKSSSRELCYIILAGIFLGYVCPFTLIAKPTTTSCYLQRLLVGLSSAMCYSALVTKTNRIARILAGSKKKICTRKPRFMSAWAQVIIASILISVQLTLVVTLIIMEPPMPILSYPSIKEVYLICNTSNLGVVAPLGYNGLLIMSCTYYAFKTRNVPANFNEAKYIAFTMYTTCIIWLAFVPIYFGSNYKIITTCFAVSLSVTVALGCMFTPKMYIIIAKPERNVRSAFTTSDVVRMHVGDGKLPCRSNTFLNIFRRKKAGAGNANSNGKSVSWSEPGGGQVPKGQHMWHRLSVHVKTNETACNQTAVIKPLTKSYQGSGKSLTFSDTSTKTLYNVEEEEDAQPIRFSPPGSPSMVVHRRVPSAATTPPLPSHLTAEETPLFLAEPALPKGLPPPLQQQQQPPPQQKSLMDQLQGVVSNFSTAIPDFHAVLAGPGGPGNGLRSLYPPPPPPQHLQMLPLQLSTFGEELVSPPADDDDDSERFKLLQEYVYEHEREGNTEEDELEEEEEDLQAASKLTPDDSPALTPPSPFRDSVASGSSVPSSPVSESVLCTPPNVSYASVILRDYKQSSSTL
pIC50 here is simply -log10 of the concentration when that concentration is written in mol/L.

1. CO[C@H]1CC[C@@H](C(=O)c2ccc3nc4c(cc3c2)CCS4)CC1 | 8.70
2. N[C@H](C(=O)O)c1ccc(O)c(C(=O)O)c1 | 3.54
3. C[C@H]1CC[C@@H](C(=O)c2ccc3nc4c(cc3c2)CCCCC4)CC1 | 7.80
4. N[C@H](C(=O)O)C12C3C4C1C1C2C3C41C(=O)O (stereo partly specified) | 3.63
5. CCc1cc2cc(C(=O)[C@H]3CC[C@@H](OC)CC3)ccc2nc1F | 8.05
6. N[C@H](C(=O)O)c1ccc(C(=O)O)cc1 | 4.19
7. O=C(Cc1ccccc1)c1ccc2nc3c(cc2c1)CCCO3 | 7.85
8. Cc1c(-c2ccc3ncccc3c2)nnn1-c1cccnc1F | 8.44

Short answer please: pIC50, Metabotropic glutamate receptor 1 (Homo sapiens, UniProt Q13255), entry CO[C@H]1CC[C@@H](C(=O)c2ccc3nc4c(cc3c2)CCCN4C)CC1
7.54

Short answer please: pIC50, Metabotropic glutamate receptor 1 (Homo sapiens, UniProt Q13255), entry NC1(C(=O)O)CCc2cc(C(=O)O)ccc21 (stereo unspecified)
3.67

Short answer please: pIC50, Metabotropic glutamate receptor 1 (Homo sapiens, UniProt Q13255), entry CO[C@H]1CC[C@@H](C(=O)c2ccc3nc4c(cc3c2)CCCO4)CC1 (stereo in doubt; form 2)
6.97
